Target: T1, mouse 129 SIRP-α D1 domain (mouse (129 strain), UniProt P97797 32-150)
T1 construct: also called m129
T1 chain: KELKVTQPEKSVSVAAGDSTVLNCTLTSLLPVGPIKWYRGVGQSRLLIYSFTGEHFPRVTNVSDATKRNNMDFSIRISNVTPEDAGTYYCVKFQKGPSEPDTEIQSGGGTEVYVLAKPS
Assay: SPR, Langmuir fit
Recorded koff for the following binders
All answers are understood in s⁻¹, so give the number only.

{"BINDER": "S201 (scFv, V domains shown) VH: DVQLVESGGAVVRPGETLRLSCTASGFTFSSYAMSWVRQAPGKGLEWVSGISASGSDTYYADSVKGRSTISRDNSKNTLYLRMSSLTAEDTAVYYCARETWNHLFDYWGLGTLVTVSS VL: ALTQPASVSANPGETVKITCSGGGTSSYYGWYQQKSPGSAPVTLIHSDDKRPSDIPSRFSGSASGSTATLTITGVQVEDEAVYYCGGYDYTTYVNTFGAGTTLTVL", "UNITS_LABEL": "s⁻¹", "RECORDED_NUMBER": 0.000818}
{"BINDER": "S21 (scFv, V domains shown, also called clone 21; scFv-Fc form of AB21) VH: DVQLVESGGGVVRPGESLRLSCAASGFTFSSNAMSWVRQAPGKGLEWLAGISAGGSDTYYPASVKGRFTISRDNSKNTLYLQMNTLTAEDTAVYYCARETWNHLFDYWGLGTLVTVSS VL: ALTQPASVSANPGETVKIACSGGDYYSYYYGWYQQKAPGSALVTVIYSDDKRPSDIPSRFSGSASGSTATLTITGVRAEDEAVYYCGGYDYSTYANAFGAGTTLTVL", "UNITS_LABEL": "s⁻¹", "RECORDED_NUMBER": 0.000281}

Exercise: Give koff for S56 (scFv, V domains shown, also called clone 56) VH: DVQLVESGGGVVRPGESLRLSCAASGFTFSSYAMSWVRQAPGKGLEWLAGISAGGSDTYYIDSVKGRFTISRDNSKNSLYLQVNSLTAEDTAVYYCARETWNHLFDYWGLGTLVTVSS VL: ALTQPASVSANPGETVKITCSGGGYYSTYYGWYQQKSPGSAPVTVIHSDDKRPSDIPSRFSGSASGSAATLTITGVRVEDEAVYYCAGYDGRTYINTFGAGTTLTVL
Solution: 0.000406

Exercise: Give koff for S17 (scFv, V domains shown, also called clone 17) VH: DVQLVESGGAVVRPGESLRLSCAASGFTFSSYAMSWVRQAPGKGLEWLAGISAGGSDTYYIDSVKGRFTISRDNSENSLYLQMNSLTAEDTAVYYCARETWNHLFDYWGLGTLVTVSS VL: ALTQPASVSANPGETVKITCSGGDWYSTYYGWYQQKSPGSAPVTVIHSDDKRPSDIPSRFSGSASGSAATLTITGVRVEDEAVYYCAGYDGRTYINTFGAGTTLTVL
Solution: 0.000234

Exercise: Give koff for S55 (scFv, V domains shown, also called clone 55) VH: DVQLVESGGGVVRPGESLRLSCAVSGFRFSSYAMSWVRQAPGKGLEWVSGISSGGDTYYVDSVKGRFTISRDNSKNTLYLQVNSLTAEDTAIYYCARETWNHLFDYWGLGTLVTVSS VL: ALTQPASVSANLGETVEITCSGGDSSSHYYGWYQQKSPGSAPVTVIYSDDERPSDIPSRFSGSASGSTATLTITGVRVEDEAIYYCGAYDGSTYANTFGAGTTLTVL
Solution: 0.000143

Exercise: Give koff for S28 (scFv, V domains shown, also called clone 28) VH: DVQLVESGGGVVRPGESLRLSCAASGFSFSSNAMSWVRQAPGKGLEWVAGISASGDTYYSGSMKGRFTISRDNSKNTLYLQMNSLTAEDTAVYYCARETWNHLFDYWGLGTLVTVSS VL: ALTQPASVSANPGETVKITCSGGSDSYYYGWHQQKSPGSAPVTVIYSDDQRPPDIPSRFSGSASGSTTTLTITGVRAEDEAVYYCGGYDYSTYTNTFGAGTTLTVL
Solution: 0.000306

Exercise: Give koff for S71 (scFv, V domains shown, also called clone 71) VH: DVQLVESGGGVVRPGESLRLSCAASGFTFSSYAMSWVRQAPGKGLEWLAGISAGGSDTYYIDSVKGRFTISRDNSKNSLYLQMNSLTAEDTAVYYCARETWNHLFDYWGLGTLVTVSS VL: ALTQPASVSANPGETVKITCSGGGYYSTYYGWYQQKSPGSAPVTVIHSDDKRPSDIPSRFSGSASGSAATLTITGVRVEDEAVYYCAGYDARTYINTFGAGTTLTVL
Solution: 0.000417

Exercise: Give koff for S3 (scFv, V domains shown, also called clone 3; scFv-Fc form of AB3) VH: AVTLDESGGGLQTPGGALSLVCKASGFIFSDYGMNWVRQAPGKGLEFVAQITSGSRTYYGAAVKGRATISRDNRQSTVKLQLNNLRAEDTGIYFCARDFGSGVGSIDAWGNGTEVIVSS VL: ALTQPASVSANLGGTVKITCSGSRGRYGWYQQRSPGSAPVTVIYRDNQRPSNIPSRFSSSTSGSTSTLTITGVQADDESVYFCGSYDGSIDIFGAGTTLTVL
Solution: 0.000655

Exercise: Give koff for S60 (scFv, V domains shown, also called clone 60) VH: DVQLVDSGGGVVRPGESLRLSCAASGFTFSSYAMSWVRQAPGKGLEWLAGISAGGSDTYYIDSVKGRFTISRDNSKNSLYLQMNSLTAEDTAVYYCARETWNHLFDYWGLGTLVTVSS VL: ALTQPASVSANPGETVKITCSGGDYYSTYYGWYQQKSPGSAPVTVIHSDDKRPSDIPSRFSGSASGSAATLTITGVRVEDEAVYFCGAYDGRTYINTFGAGTTLTVL
Solution: 0.000221

Exercise: Give koff for S69 (scFv, V domains shown, also called clone 69) VH: DLQLVESGGGVVRPGESLRLSCAASGFTFSSYAMSWVRQAPGKGLEWLAGISAGGSDTYYIDSVKGRFTISRDNSKNSLYLQMNSLTAEDTAVYYCARETWNHLFDYWGLGTLVTVSS VL: ALTQPASVSANPGETVKIICSGGDYYSTYYGWYQQKSPGSAPVTVIHSDDKRPSDIPSRFSGSASGSAATLTITGVRVEDEAVYFCGAYDGRTYINTFGAGTTLTVL
Solution: 0.000246
